# assayConditions: buffer; pH 7.4; 200.0 µM
Reported solubility kinetic by item:

Consider the following illustrative entries.
molecule="O=C1Nc2cc(Br)ccc2C1(O)c1ccccc1O (stereo not given)" observedmeasurement="> 48 µg/mL"
molecule="Cc1cc(NC(=O)CN2C(=O)NC(C)(CC(C)C)C2=O)no1 (stereo not given)" observedmeasurement="> 46.3 µg/mL"
molecule=CCOc1ccc(NC(=S)NCCCN2CCOCC2)cc1 observedmeasurement="> 48.5 µg/mL"
molecule="COc1cc(C(=O)OCC(=O)NCC2CCCO2)cc(OC)c1OC (stereo not given)" observedmeasurement="> 53 µg/mL"
molecule="COc1ccc(S(=O)(=O)N2CCOCC2)cc1NC(=O)COC(=O)CC1CC2CCC1C2 (stereo not given)" observedmeasurement="11.3 µg/mL"
molecule=Cc1nn(C)cc1S(=O)(=O)Nc1ccc(F)c(F)c1 observedmeasurement="> 43.1 µg/mL"
molecule="CC1CCC(NC(=O)CN2C(=O)NC(C)(C)C2=O)CC1 (stereo not given)" observedmeasurement="> 42.2 µg/mL"
molecule=OCc1cc(Br)ccc1OCc1nc2ccccc2s1 observedmeasurement="< 0.8 µg/mL"

Using the record for "COC(=O)c1ccc(CNC(=O)C23CC4CC(CC(C4)C2)C3)cc1" , state its measured solubility kinetic.
6.2 µg/mL

Determine from records and report solubility kinetic for Cc1ccc(S(=O)(=O)CC(O)COc2ccc(C#N)cc2)cc1 (stereo not given)
> 49.7 µg/mL

###

# assayConditions: buffer; pH 7.4; 200.0 µM
Here, each record is paired with measured solubility kinetic data.

compound="CC(O)CNC(=O)Cc1cc(=O)[nH]c(=O)[nH]1 (centres undefined)" observedmeasurement="> 34.1 µg/mL"
compound=CC1CCN(C(=O)NC(=O)c2ccc(Cl)cc2)CC1 observedmeasurement="> 42.1 µg/mL"
compound=CCOc1ccccc1NC(=O)c1ccc2c(c1)C(=O)N(CC(C)C)C2=O observedmeasurement="< 0.4 µg/mL"

Given the compound "COc1ccc(Nc2oc(-c3ccc(F)cc3)nc2C#N)cc1" , write its reported solubility kinetic.
< 0.2 µg/mL

###

# assayConditions: buffer; pH 7.4; 200.0 µM
observable: log10(solubility kinetic) (log10 of the value in µg/mL)
Values below are the log10 of the recorded solubility kinetic, with µg/mL as the unit.

compound=Cc1csc(NC(=O)c2ccc(S(=O)(=O)N3CCN(C)CC3)cc2)n1 observedmeasurement=1.74
compound=O=C(NCc1ccc(Cl)cc1)c1ccc(N2CCCC2=O)cc1 observedmeasurement=0.72
compound=O=C(COc1ccc(Cl)cc1)NCCNC(=O)c1ccccn1 observedmeasurement=1.68
compound=COc1ccc(Nc2nc3nonc3nc2N2CCCCC2)cc1 observedmeasurement=0.72
compound=O=C(CCN1C(=O)c2ccccc2C1=O)CN1CCOCC1 observedmeasurement=1.56
compound="CC(CN1CCOCC1)OC(=O)c1ccc(C(C)(C)C)cc1.Cl (configuration not stated)" observedmeasurement=1.26

Now turn to the next compound.
For the compound "Cc1cnc(=O)[nH]c1SCc1cccc(C(F)(F)F)c1" , give its reported log10(solubility kinetic).
0.92

###

# assayConditions: buffer; pH 7.4; 200.0 µM
observable: solubility kinetic

Recorded results for 3 molecules are shown here.
molecule=Cc1ccc(NC(=O)c2c(C)noc2C)cc1S(=O)(=O)N1CCOCC1 observable="solubility kinetic" observedmeasurement="> 56.9 µg/mL"
molecule=Cc1ccc(SCC(=O)NC2CC2)cc1 observable="solubility kinetic" observedmeasurement="> 33.2 µg/mL"
molecule="Cc1csc(NC(=O)C2CC(=O)N(Cc3ccco3)C2)n1 (centres undefined)" observable="solubility kinetic" observedmeasurement="> 45.8 µg/mL"

For the molecule "Cc1ccc(CC(=O)Nc2nccs2)cc1C" , give its reported solubility kinetic.
3.3 µg/mL

###

Reported solubility kinetic by item:
# assayConditions: buffer; pH 7.4; 200.0 µM

compound="CC(=O)N1C(C(=O)O)Cc2c([nH]c3ccccc23)C1C (stereo unspecified)" observable="solubility kinetic" observedmeasurement="> 40.8 µg/mL"
compound=COc1ccc(CNC(=S)NCc2ccc(F)cc2)cc1OC observable="solubility kinetic" observedmeasurement="> 50.2 µg/mL"
compound=[Cl-].c1ccc(CNc2cccc[nH+]2)cc1 observable="solubility kinetic" observedmeasurement="> 33.1 µg/mL"
compound=Cc1c(Cl)cccc1NC(=O)CCN1CCN(C)CC1 observable="solubility kinetic" observedmeasurement="> 44.4 µg/mL"
compound="CC1CN(C(C)C(=O)NC(c2ccccc2)c2ccccc2)CC(C)O1 (stereo unspecified)" observable="solubility kinetic" observedmeasurement="> 52.9 µg/mL"

Answer with the recorded solubility kinetic for the compound listed here: "O=C(Cc1cccs1)Nc1ccccc1F"
> 35.3 µg/mL

###

# assayConditions: buffer; pH 7.4; 200.0 µM
observable: log10 solubility kinetic (log10 of the value in µg/mL)
Annotation: log10 of solubility kinetic, µg/mL basis.

compound="Cc1ccc(NC(=O)C2CC2c2ccccc2)c([N+](=O)[O-])c1 (centres undefined)" observedmeasurement=0.54
compound=CC(C)c1ccccc1NC(=S)NCC1(N(C)C)CCCCC1 observedmeasurement=1.66
compound=COc1ccc(NC(=O)Cc2c(Cl)cccc2Cl)cn1 observedmeasurement=0.79
compound=Cc1onc(-c2c(F)cccc2Cl)c1C(=O)N=C(N)N1CCCC1 observedmeasurement=0.70
compound=O=C(COC(=O)c1ccco1)Nc1ccc2[nH]c(=O)[nH]c2c1 observedmeasurement=0.97

Give the reported log10 solubility kinetic for this compound. "COc1ccc(NC(=O)C2CCCCC2)cc1S(=O)(=O)N1CCOCC1"
1.71

Report log10 solubility kinetic, nothing else, for this compound: "COc1ccccc1NC(=O)c1ccccc1C(=O)N(C)Cc1ccccc1"
0.11

Recall and state the measured log10 solubility kinetic for "O=C(/C=C/c1ccco1)NC(=S)N1CCCCC1" .
1.44

Please indicate log10 solubility kinetic recorded for Cc1cc(OC(C)C(=O)Nc2cccnc2)ccc1Cl (centres undefined)
1.55

Tell us which log10 solubility kinetic value is on record for "O=C(NC(=S)Nc1ccc(F)cc1)C1CCCCC1"
0.11

Identify log10 solubility kinetic associated with the compound "CCN(C(=O)N1CCOCC1)c1ccccc1C"
1.41

Tell me log10 solubility kinetic reported for CCC1(C)Cc2ccccc2C(=O)N1 (centres undefined)
1.40

For the compound COc1ccc([N+](=O)[O-])cc1NC(=O)C(C)OC(=O)C1CCCC1 (centres undefined) , give its reported log10 solubility kinetic.
1.08

Give recorded log10 solubility kinetic. "CCSc1ccccc1-c1nc(-c2ccncc2)no1"
0.71

Retrieve log10 solubility kinetic measured for "Clc1ccc(CNc2ccccn2)cc1" and print it.
1.41

Give reported log10 solubility kinetic value for "O=C(Nc1ccccc1F)C1CCCC1"
1.37

Given "COc1ccc(OC)c(NC(=O)Nc2ccc3c(c2)OCO3)c1" , respond with its log10 solubility kinetic.
0.36

###

# assayConditions: buffer; pH 7.4; 200.0 µM
solubility kinetic listing for selected compounds.

Reference set, count: 4
compound=O=C(COC(=O)Cc1ccc([N+](=O)[O-])cc1)NC1CCCCCC1 observable="solubility kinetic" observedmeasurement="> 0.0502 mg/mL"
compound="CC1(C(=O)O)CCC(C(N)=O)C1(C)C (centres undefined)" observable="solubility kinetic" observedmeasurement="> 0.0299 mg/mL"
compound=COc1ccccc1OCCNC(=O)c1ccc(C)o1 observable="solubility kinetic" observedmeasurement="> 0.0413 mg/mL"
compound=O=C1CCCN1C(=O)CSc1ncnc2sccc12 observable="solubility kinetic" observedmeasurement="> 0.044 mg/mL"

Complete the entry with solubility kinetic for "O=C(COC(=O)CNC(=O)c1ccc(Cl)cc1Cl)NC1CC1"
> 0.0518 mg/mL

Using known records, supply solubility kinetic for "COCCNC(=O)Cn1nc(-c2ccc(C)cc2)ccc1=O"
> 0.0452 mg/mL

Determine from records and report solubility kinetic for "C[n+]1c(-c2ccccc2)sc2ccccc21.[O-][Cl+3]([O-])([O-])[O-]"
> 0.0489 mg/mL

Consider the compound "O=C(NCCN1CCOCC1)c1c(O)nc2ccccn2c1=O" and give its recorded solubility kinetic.
> 0.0477 mg/mL

Answer with the recorded solubility kinetic of "CCN(CC(=O)NCC(=O)Nc1cccc(C)c1C)Cc1ccccc1" only.
> 0.053 mg/mL

###

Measured solubility kinetic accompanies every entry in the list below.
# assayConditions: buffer; pH 7.4; 200.0 µM

# example entries with known answers
compound=Cc1ccc(C)c(C(=O)COC(=O)Cn2c(C)csc2=O)c1 observable="solubility kinetic" observedmeasurement="> 47.9 µg/mL"
compound=Cc1cc(C)cc(C(=O)OCC(=O)N2CCCCCC2)c1 observable="solubility kinetic" observedmeasurement="> 43.4 µg/mL"
compound="CC1=C(C)CC(C(=O)NC2CCN(C(C)C)CC2)C(C(=O)O)C1 (stereo unspecified)" observable="solubility kinetic" observedmeasurement="> 48.4 µg/mL"

For "COc1cccc(OC)c1OC(=O)c1cnccn1" , write its solubility kinetic.
< 0.3 µg/mL

Quick one: give measured solubility kinetic for "Cn1c(N)c(N=O)c(=O)n(C)c1=O"
> 27.6 µg/mL

State its solubility kinetic for this compound: Cc1cc(C)nc(-n2ncc3c2CC(C)CC3=O)n1 (stereo unspecified)
> 38.4 µg/mL
